system: MOLT-4 leukemia; experiment: NCI-60 one-dose screen, 48 h; settings: 10 µM unless noted
Compounds without any hit were thinned out: in the full panel of roughly 83,000, 20% have a hit. Active and inactive are the calls of the source. How the source made its calls: active means growth percent below 10; inactive means the rest.
Outcome codes: label 1 (active), label 0 (inactive)

compound	group label
CNC(=O)c1cc(Oc2cccc3nc(NC(=O)Nc4ccc(F)cc4F)ccc23)ccn1	label 0
Cc1ccc(C2=Nc3c(N)nc(N)nc3NC(c3cccc(Nc4ccnc5cc(C(F)(F)F)ccc45)c3)C2)cc1 (centres undefined)	label 1
COc1cc(C(=O)c2c(-c3ccccc3)oc3ccccc23)cc(OC)c1O	label 0
COc1cc2ncnc(Nc3ccc(S(=O)(=O)Nc4cc(C)on4)cc3)c2cc1OCCCN1CCOCC1	label 0
CCN1CCN(CCOc2ccc(CNc3ccc4nc(CCC5CCCCC5)[nH]c4c3)cc2)CC1	label 0
O=C1OCC2=C1C(c1cccc(F)c1)c1cc3c(cc1N2CCO)CCC3 (centres undefined)	label 0
COc1ccc(C2=NN(C=O)C(c3ccc(Oc4nc5c(c(=O)n(C)c(=O)n5C)n4C)c(OC)c3)C2)cc1 (centres undefined)	label 0
CC(C)(C#N)c1cc(C(=O)Nc2cc(Nc3ncccc3-c3ncnc4nc[nH]c34)ccc2F)cc(C(F)(F)F)c1	label 0
CC(=O)O[C@H]1CC[C@@]2(C)C(=CC[C@@H]3[C@@H]2CC[C@]2(C)C(Cl)=C(c4nc5ccc(Cl)cn5c4NC(C)(C)C)C[C@@H]32)C1	label 0
CCOC(=O)c1c(Nc2nc3ccccc3s2)sc2c1CCC(=O)C2	label 0
Cc1ccc(C(F)(F)F)cc1N1CCN(C(=O)[C@H]2C[C@H]2c2ccc(C(F)(F)F)nc2)CC1	label 0
O=C(Nc1ncc(Cc2ccc(Cl)cc2)s1)c1ccc2c(c1)OCCO2	label 1
O=C(Nc1ncc(Cc2cc(C(F)(F)F)ccc2Cl)s1)C(=S)N1CCOCC1	label 0
CCCCCCCCNC(=O)[C@@H](N)CSCOC(C)=O	label 0
C=C(C)[C@@H]1CC[C@]2(C#N)CC[C@]3(C)[C@H](CC[C@@H]4[C@@]5(C)CCCNC(C)(C)[C@@H]5CC[C@]43C)[C@@H]12	label 0
CC(C)(C)n1cc(-c2ccnc(NCCNS(=O)(=O)c3cccc4ccccc34)c2)c(-c2cccc(O)c2)n1	label 0
COC(=O)CNC(=O)c1ccc(NC(=O)c2[nH]c(C)c(Cl)c2Cl)c(O[C@H]2CCNC2)c1	label 0
C#Cc1cccc(Nc2nc(Cl)nc3cc(NC(=O)CCl)ccc23)c1	label 1
CCOC(=O)CCC(=O)P(=O)(O)O	label 0

###

test system: SF-268 CNS; test: NCI-60 one-dose screen, 48 h; conditions: 10 µM unless noted
The panel holds about 83,000 compounds, 20% with a hit somewhere; the sample as a whole holds those more often. Activity calls are given as the source filed them. The calls were made as follows: active = growth percent below 10; inactive = the rest.
Classes used: active, inactive

compound	measured target	group label
CCN1C(=O)N(CC)C2C1NN=c1s/c(=C\c3ccccc3)c(=O)n12 (centres undefined)	SF-268 CNS	inactive
COC1CC(O)C2=C(CC3C(/C(C)=C\CC=C(C)C)CCC3(C)O2)C1=O (centres undefined)	SF-268 CNS	inactive
O=C(c1ccccc1)[C@@H](c1ccccc1)[C@]1(O)C(=O)Nc2ccccc21	SF-268 CNS	inactive
O=C(Nc1cccc2c1C(=O)c1cccc(NC(=O)c3ccc(C(=O)Nc4cccc5c4C(=O)c4cccc(NC(=O)c6ccccc6)c4C5=O)cc3)c1C2=O)c1ccccc1	SF-268 CNS	inactive
O=C(Nc1ncc(Cc2ccc(Cl)cc2)s1)c1ccc2c(c1)OCCO2	SF-268 CNS	inactive
C#C[C@]1(O)CC[C@H]2[C@@H]3CC=C4c5sc(-c6ccccc6)nc5CC[C@]4(C)[C@H]3CC[C@@]21C	SF-268 CNS	inactive
CC(C)c1nc(N(C)S(C)(=O)=O)nc(-c2ccc(F)cc2)c1/C=C/C(=O)C[C@@H](O)CC(=O)O	SF-268 CNS	inactive
CC/C(=C(/c1ccc(Cl)cc1)c1ccc(OCCN2CCCC2)cc1)c1ccccc1	SF-268 CNS	inactive
CN(C)C(=S)NN=C(c1ccccn1)c1ccccn1	SF-268 CNS	inactive
C=CC(=O)Nc1ccc2ncnc(Nc3cccc(NS(=O)(=O)CCC)c3Cl)c2c1	SF-268 CNS	inactive
O=C(Nc1ncc(Cc2cc(C(F)(F)F)ccc2Cl)s1)C(=S)N1CCOCC1	SF-268 CNS	inactive
COc1cc2c(c(OC)c1OC)CCC(c1cccc(C(=O)Nc3ccccc3Br)c1)O2 (centres undefined)	SF-268 CNS	inactive
N#C/C(Sc1nc2sc3c(c2c(=O)n1Cc1ccccc1)CCCC3)=C1/SC=C(c2ccc(Cl)cc2)N1c1ccccc1	SF-268 CNS	inactive
CCN(CC)CCCNC(=O)c1c2c(n3ccccc13)C(=O)c1ncccc1C2=O	SF-268 CNS	active
CN(CCNc1ccc(C(=N)N)cc1)c1ccc(C(=N)N)cc1	SF-268 CNS	inactive
CN(C)c1ccc(Cc2cc(-c3ccccc3)nn(C/C(=N/O)c3ccccc3)c2=O)cc1	SF-268 CNS	inactive
O=C(CSc1nnc(-c2cc(-c3ccc(Cl)cc3)nc3ccccc23)n1-c1ccccc1)Nc1ccc(Cl)cc1	SF-268 CNS	inactive
O=C(Nc1ccccc1)Nc1ccccc1CNc1nc(Nc2ccc(OCCN3CCCC3)cc2)ncc1Cl	SF-268 CNS	inactive
Cc1ccc(Nc2cc(N)nc(N)n2)cc1	SF-268 CNS	inactive

###

system: HCT-15 colon; experiment: NCI-60 one-dose screen, 48 h; conditions: 10 µM unless noted
This is part of a sample that, as a whole, favours compounds with a hit. Of some 83,000 tested, about 20% had one in any assay. Calls of active or inactive are those of the source. Rule for the calls: active = growth percent below 10; inactive = the rest.
Classes used: active, inactive

compound	measured target	group label
COc1cccc(-c2cc(-c3ccc(Nc4nc(Nc5ccc(Cl)cc5)nc(Nc5ccc(Cl)cc5)n4)cc3)nc(N)c2C#N)c1	HCT-15 colon	inactive
CCOC(=O)c1c2c(n3ccc(NC(=O)CCN4CCCC4)cc13)C(=O)c1ncccc1C2=O	HCT-15 colon	active
CCCNNC(=O)c1ccc(CNC(=O)/C=C/c2ccccc2)cc1	HCT-15 colon	inactive
COc1ccc(-c2nc(SCCC(C)C)nc(N/N=C(/C)c3ccc(N)cc3)c2C#N)cc1	HCT-15 colon	inactive
COc1cc2ncnc(Nc3ccc(S(=O)(=O)Nc4cc(C)on4)cc3)c2cc1OCCCN1CCOCC1	HCT-15 colon	inactive
CC(=O)CC(=O)c1ccccc1.[Cu+2]	HCT-15 colon	inactive
Cc1cccc(C)c1NC(=O)Nc1ccccc1	HCT-15 colon	inactive
CO[C@H]1/C=C/O[C@@]2(C)Oc3c(C)c(O)c4c(O)c(c5c(nc6cc(C)ccn65)c4c3C2=O)NC(=O)/C(C)=C\C=C\[C@H](C)[C@H](O)[C@@H](C)C(O)[C@@H](C)[C@H](OC(C)=O)[C@@H]1C (some centres not stated)	HCT-15 colon	inactive
Cc1cc(=O)oc2cc(Oc3nc(-c4ccccc4)cn4c(-c5ccccc5)cnc34)ccc12	HCT-15 colon	inactive
CN(C)C(=S)NN=C(c1ccccn1)c1ccccn1	HCT-15 colon	inactive
Nc1ncc(-c2ccc3ncnc(N4CCc5cc(F)c(Cl)cc54)c3c2)cc1C(F)(F)F	HCT-15 colon	inactive
CCCCCCCC/C=C\CCCCCCCCOc1ccc(CC(=O)NCC[N+]2(C)CCCC2)cc1	HCT-15 colon	inactive
O=C(Nc1ccc(Oc2cccc(F)c2)c(Cl)c1)c1cnccn1	HCT-15 colon	inactive
CNc1nc2ncc(-c3c(C)noc3C)cc2n1Cc1ccccc1	HCT-15 colon	inactive
COc1ccc(NC(=O)c2sc3nc(C)c(C(=O)c4ccccc4)cc3c2N)cc1	HCT-15 colon	inactive
Cc1cc2c(C(C)C)c(O)c(O)c(/C=N/O)c2c(O)c1-c1c(C)cc2c(C(C)C)c(O)c(O)c(/C=N/O)c2c1O	HCT-15 colon	inactive
C=CC(=O)NCc1cccc(Nc2ncc(Br)c(NCCCNC(=O)C3CCC3)n2)c1	HCT-15 colon	active
COc1cc2c(c(OC)c1OC)CCC(c1cccc(C(=O)Nc3ccc([N+](=O)[O-])cc3)c1)O2 (configuration not stated)	HCT-15 colon	inactive
CCOC(=O)C1=C(c2ccccc2)N=C2SC=C(c3cccc([N+](=O)[O-])c3)N2C1c1ccc(O)cc1 (configuration not stated)	HCT-15 colon	inactive
CC(=O)O[C@H]1CC[C@@]2(C)C(=CC[C@@H]3[C@@H]2CC[C@]2(C)C(Cl)=C(c4nc5ccc(Cl)cn5c4NC(C)(C)C)C[C@@H]32)C1	HCT-15 colon	inactive
CC(=O)c1c(/C=C/c2ccc(C)cc2)c2ccccc2[nH]c1=O	HCT-15 colon	inactive
O=C(CSc1nc(-c2ccccc2)cn1-c1ccc(Cl)cc1)c1ccc([N+](=O)[O-])cc1	HCT-15 colon	inactive
O=c1[nH]c(CN2CCN(c3ccccc3)CC2)nc2c(Br)cc(Br)cc12	HCT-15 colon	inactive
N#C/C(=N\Nc1ccccc1)C(=O)Nc1cc(-c2ccccc2)nn1-c1ccccc1	HCT-15 colon	inactive
COc1ccc(Nc2nc(Nc3cc(C)[nH]n3)c3cc(OC)c(OC)cc3n2)cc1	HCT-15 colon	active
COc1ccc(N2C(=O)/C(=C/C(Cl)=C/c3ccc([N+](=O)[O-])cc3)SC2=S)cc1	HCT-15 colon	active
Cc1[nH]c(C(=O)Nc2ccc(C(N)=O)cc2OC(C)C)c(Cl)c1Cl	HCT-15 colon	inactive
Cc1ccc(NC(=O)c2ccc(Nc3ncnc4c3cnn4-c3cccc(F)c3)cc2)cc1	HCT-15 colon	inactive
Cc1ccc(Nc2oc(-c3ccccc3)nc2[P+](c2ccccc2)(c2ccccc2)c2ccccc2)cc1	HCT-15 colon	active
C#CCOc1cccc(Nc2ncnc3c(NC(=O)CCl)cccc23)c1	HCT-15 colon	active
CN1CCN(Cc2ccc(NC(=O)c3cncc(C#Cc4cnc(N)c5ccc(C#N)cc45)c3)cc2C(F)(F)F)CC1	HCT-15 colon	active
O=S(=O)(c1ccc(NCSc2nc3ccccc3s2)cc1)c1ccc(NCSc2nc3ccccc3s2)cc1	HCT-15 colon	inactive
CCCCCCCCNC(=O)[C@@H](N)CSCOC(C)=O	HCT-15 colon	inactive
Cc1c(C(=O)C(SC(=S)N2CCOCC2)SC(=S)N2CCOCC2)nnn1-c1ccc([N+](=O)[O-])cc1	HCT-15 colon	inactive
CC(C)(C)CC(C)(C)Nc1c(-c2c(O)c3ccccc3oc2=O)nc2sccn12	HCT-15 colon	inactive
COC(=O)c1nc(-c2ccccc2)oc1S(=O)(=O)N1CCN(c2ccc(OC)cc2)CC1	HCT-15 colon	inactive
COC(=O)c1cc(-c2ccc(OC)c(OC)c2)[nH]c1N/N=C/c1c(Cl)cccc1Cl	HCT-15 colon	inactive

The values you see were collected from PubChem BioAssay (NCI).
